# Tested on: HT29
# Test Conditions: 72 h, relative to DMSO; 10 µM
Each entry below carries its recorded Relative cell viability (%).
Numbers only; they are read as %.

# Compound, Relative cell viability (%) / %
records = [
    ("O=c1oc2c(O)c(O)cc3c(=O)oc4c(O)c(O)cc1c4c23", 74.3),
    ("Clc1ccc(CCC(Cn2ccnc2)Sc2c(Cl)cccc2Cl)cc1 (stereo not shown) [Butoconazole nitrate]", 63.98),
    ("CC(C)Nc1cc(-c2c[nH]c(C(=O)N[C@H](CO)c3cccc(Cl)c3)c2)c(Cl)cn1", 30.34),
]

Consider the compound shown here: CCOC(=O)[C@H]1O[C@@H]1C(=O)N[C@@H](CC(C)C)C(=O)NCCC(C)C What is its recorded Relative cell viability (%)?
100.9

Cool, now CCCC(=O)OCOC(=O)C1=C(C)NC(C)=C(C(=O)OC)C1c1cccc(Cl)c1Cl (stereo not shown) [Clevidipine Butyrate]
112
